Collected set of IC50 measured with Epidermal growth factor receptor (Homo sapiens) across studies.

MOLECULE: CCOC(=O)CCCn1c(=O)oc2cc3ncnc(NCc4ccccc4)c3cc21
IC50: > 10 µM
//
MOLECULE: Nc1ccc2ncnc(Nc3cccc(C(F)(F)F)c3)c2c1
IC50: 0.574 µM
//
MOLECULE: CCN1CCC(Oc2cc(OC)cc3ncnc(Nc4ccc(F)c(Cl)c4)c23)CC1
IC50: < 0.002 µM
//
MOLECULE: O=C(NO)c1ccccc1Nc1nc(Nc2ccc(N3CCOCC3)cc2)ncc1Cl
IC50: 0.169 µM
//
MOLECULE: CCOC(=O)Nc1ccc(Nc2ncnc3ccccc23)cc1C
IC50: > 10 µM
//
MOLECULE: COc1cc2ncnc(Nc3ccc(F)c(Cl)c3)c2cc1NC(=O)/C=C/CN1CC[S+]([O-])CC1
IC50: > 1 µM
//
MOLECULE: COc1cc2ncnc(Oc3ccc(NC(=O)Nc4ccccc4)cc3)c2cc1OC
IC50: > 10 µM
//
MOLECULE: C=CC(=O)Nc1cc(Nc2ncc(Cl)c(N3CCc4sccc4C3)n2)c(OC)cc1N1CCN(C)CC1
IC50: > 4 µM
//
MOLECULE: Cc1c(C#N)c(Nc2ccc(S(N)(=O)=O)cc2)nc2nc(NCCO)nc(N)c12
IC50: > 100 µM
//
MOLECULE: COc1cc2ncnc(N(C)c3ccc(Br)cc3F)c2cc1OC
IC50: > 10 µM
//
MOLECULE: COc1cccc(/C=N/NC2=NC(=O)CS2)c1
IC50: 31.2 µM
//
MOLECULE: Nc1nccn2c1c(-c1cc3cccc(Cl)c3[nH]1)nc2[C@H]1CC[C@H](C(=O)O)CC1
IC50: > 40 µM
//
MOLECULE: O=S(=O)(CCNCc1ccc(-c2ccc3ncnc(Nc4ccc(OCc5cccc(F)c5)c(Cl)c4)c3c2)o1)c1ccccc1
IC50: 0.019 µM
//
MOLECULE: C=CC(=O)Nc1cccc(N2C(=O)C(Cc3ccc(F)cc3)N(C)C(=O)c3cnc(Nc4ccc(N5CCN(C)CC5)cc4OC)nc32)c1 (stereo not drawn)
IC50: 0.00578 µM
//
MOLECULE: CC(C)(C)NC(=O)c1ccc(S(=O)(=O)Oc2ccc(/C=C/[N+](=O)[O-])cc2)cc1
IC50: 1.3 µM
//
MOLECULE: COc1cc2c(Nc3ccc(NC(=O)Nc4ccc(C)cc4)cc3)ncnc2cc1OCc1ccccc1
IC50: > 10 µM
//
MOLECULE: COc1ccc(OCC(=O)Nc2cccc(Oc3cc(Nc4ccc(OCc5cccc(F)c5)c(Cl)c4)ncn3)c2)cc1OC
IC50: > 10 µM
//
MOLECULE: CC1=CCC[C@H]2[C@](C)(CC3=C(O)C(=O)C=C(N[C@@H](CO)C(=O)O)C3=O)[C@@H](C)CC[C@]12C
IC50: 290 µM

* * *

Multiple publications report IC50 for Epidermal growth factor receptor (Homo sapiens); what follows is a combined list.
Exam item: assign YES to entries whose IC50 is below 1000 nM and NO to entries at or above 1000 nM. Note that a value of exactly 1000 nM receives NO.

COMPOUND: CCS(=O)(=O)n1cc2c3ccc(cc31)OCCCCCCCCOc1cc(ccc1N1CCOCC1)Nc1ncc(Cl)c-2n1
TARGET_OF_ASSAY: Epidermal growth factor receptor (Homo sapiens)
CLASS_NAME: NO
--
COMPOUND: Cc1cc(Nc2cc(N3CCN(C)CC3)nc(Oc3ccc([N+](=O)[O-])cc3)n2)n[nH]1
TARGET_OF_ASSAY: Epidermal growth factor receptor (Homo sapiens)
CLASS_NAME: NO
--
COMPOUND: CCCNC(=O)c1cc(Oc2ccc(NC(=O)c3cc4cccnc4n(-c4ccc(F)cc4)c3=O)cc2)ccn1
TARGET_OF_ASSAY: Epidermal growth factor receptor (Homo sapiens)
CLASS_NAME: NO
--
COMPOUND: CC(C)N(C)CC#CC(=O)Nc1ccc2ncnc(Nc3cccc(Br)c3)c2c1
TARGET_OF_ASSAY: Epidermal growth factor receptor (Homo sapiens)
CLASS_NAME: YES
--
COMPOUND: COc1cc(N2CCN(C)CC2)ccc1Nc1ncc(Cl)c(Oc2cccc(NC(=O)/C(C#N)=C/c3ccc(SC)cc3)c2)n1
TARGET_OF_ASSAY: Epidermal growth factor receptor (Homo sapiens)
CLASS_NAME: NO
--
COMPOUND: CC(C)(C)/C=C(\C#N)C(=O)N1CCC[C@@H](n2nc(-c3ccc(Oc4ccccc4)cc3F)c3c(N)ncnc32)C1
TARGET_OF_ASSAY: Epidermal growth factor receptor (Homo sapiens)
CLASS_NAME: YES
--
COMPOUND: Fc1ccc(Nc2ncnc3nc(Nc4ccc(CN5CCCC5)cc4)sc23)cc1Cl
TARGET_OF_ASSAY: Epidermal growth factor receptor (Homo sapiens)
CLASS_NAME: YES
--
COMPOUND: FC(F)(F)c1ccc(/C=N/Nc2nc(-c3ccc(Cl)cc3Cl)cs2)cc1
TARGET_OF_ASSAY: Epidermal growth factor receptor (Homo sapiens)
CLASS_NAME: NO
--
COMPOUND: COc1cc(N(C)CCN(C)C)c(NC(=O)/C=C\C(C)C)cc1Nc1nc2c(c(-c3cn(C)c4ccc(F)cc34)n1)CSCC2
TARGET_OF_ASSAY: Epidermal growth factor receptor (Homo sapiens)
CLASS_NAME: NO
--
COMPOUND: CCOC(=O)c1nn(-c2ccccc2)c(=O)c2c(N)c(C#N)c(-c3cccs3)cc12
TARGET_OF_ASSAY: Epidermal growth factor receptor (Homo sapiens)
CLASS_NAME: NO
--
COMPOUND: Cc1ccc(C(=O)Nc2ccc(CN3CCN(C)CC3)c(C(F)(F)F)c2)cc1NC(=O)c1ccc(O)nc1
TARGET_OF_ASSAY: Epidermal growth factor receptor (Homo sapiens)
CLASS_NAME: NO
--
COMPOUND: C[C@H](c1cccc(F)c1)n1ncc2cc(Nc3ncnn4ccc(COC[C@@H]5CNCCO5)c34)ccc21
TARGET_OF_ASSAY: Epidermal growth factor receptor (Homo sapiens)
CLASS_NAME: YES
--
COMPOUND: CNC(=O)c1cc(Oc2ccc(C3=NNC(c4cccc(Br)c4)C3)cc2)ccn1 (stereo not given)
TARGET_OF_ASSAY: Epidermal growth factor receptor (Homo sapiens)
CLASS_NAME: NO
--
COMPOUND: COc1cc2ncc(C#N)c(Nc3ccc(F)c(Cl)c3)c2cc1OCCCN1CCOCC1
TARGET_OF_ASSAY: Epidermal growth factor receptor (Homo sapiens)
CLASS_NAME: NO
--
COMPOUND: O=C1Nc2ccccc2/C1=C/c1ccc(O)cc1
TARGET_OF_ASSAY: Epidermal growth factor receptor (Homo sapiens)
CLASS_NAME: NO
